# Euclidean distance per entry
- Test system: DU145
- assay-notes: Euclidean distance of Cell Painting phenotypic profile (signed KS, 77 features) to DMSO centroid (dimensionless distance); 5 or 10 uM (library dependent); higher = stronger phenotypic change vs DMSO (phenoactivity)
- conditions-used: 48 h
Structures can show the parent of a compound that is named as a salt.
Number only, no unit.

In the examples that follow, each entry is paired with its recorded Euclidean distance.
CC(C)(C)c1nc(-c2cccc(NS(=O)(=O)c3c(F)cccc3F)c2F)c(-c2ccnc(N)n2)s1 [Dabrafenib Mesylate] = 1.47
C[C@H]1COc2c(N3CCN(C)CC3)c(F)cc3c(=O)c(C(=O)O)cn1c23 [Levofloxacin] = 0.658
Cc1ccc(/C(=C\CN2CCCC2)c2ccccn2)cc1 [Triprolidine Hydrochloride] = 0.542

Read the next record carefully.
[in] For the compound `Cc1c(C(=O)NN2CCCCC2)nn(-c2ccc(Cl)cc2Cl)c1-c1ccc(I)cc1` , what Euclidean distance is on record?
[out] 0.842

---

- Test system: OVCAR4
- assay-notes: Euclidean distance of Cell Painting phenotypic profile (signed KS, 77 features) to DMSO centroid (dimensionless distance); 5 or 10 uM (library dependent); higher = stronger phenotypic change vs DMSO (phenoactivity)
- conditions-used: 48 h
Where a name gives a salt, the structure may show the parent alone.
# cutoff 2 applies to Euclidean distance; >= gives fulfilled, < gives not fulfilled

[in] Given the entry CC1(C)CC(Oc2ccc(-c3ccc(-c4cn[nH]c4)cc3O)nn2)CC(C)(C)N1 [Branaplam (LMI070)] , answer whether its Euclidean distance meets or surpasses 2.
[out] fulfilled

[in] Is reported Euclidean distance greater than or equal to 2 here: NS(=O)(=O)c1ccccc1 [Benzenesulfonamide]
[out] not fulfilled

[in] Entry Clc1ccc2c(c1)CCc1cccnc1C2=C1CCNCC1 [Desloratadine] : is its Euclidean distance no less than 2?
[out] not fulfilled

[in] Tell me whether Euclidean distance is at least 2 here: CCCN1C[C@H](C)[C@@H](O)[C@](C)(O)[C@@H](CC)OC(=O)[C@H](C)[C@@H](O[C@H]2C[C@@](C)(OC)[C@@H](O)[C@H](C)O2)[C@H](C)[C@@H](O[C@@H]2O[C@H](C)C[C@H](N(C)C)[C@H]2O)[C@](C)(O)C[C@H]1C [Gamithromycin]
[out] not fulfilled

[in] Answer whether Euclidean distance of O=C(O)c1ccc2c(c1)nc(Nc1cccc(Cl)c1)c1ccncc12 [CX-4945 (Silmitasertib)] is greater than or equal to 2.
[out] not fulfilled

[in] Item `Cc1cc(OCc2nnc(SC3CCCC3)n2-c2cccnc2)ccc1-c1ccc(S(C)(=O)=O)cc1` with Euclidean distance of 2 or above?
[out] fulfilled

[in] For this molecule, is measured Euclidean distance 2 or higher? `CCCCCCCCCCCCCCCCn1cc[n+](Cc2ccccc2)c1C`
[out] fulfilled

[in] API: above_or_equal(metric=Euclidean distance, cutoff=2) for item COc1cc2c(cc1O)CC[C@@H]1[C@@H]2CC[C@]2(C)[C@@H](O)CC[C@@H]12 [2-Methoxyestradiol (2-MeOE2)]
[out] fulfilled

[in] Does Euclidean distance meet or surpass 2 for CC1(C)O[C@@H]2[C@@H](CO[C@@]3(COS(N)(=O)=O)OC(C)(C)O[C@@H]23)O1 [Topiramate] ?
[out] not fulfilled

[in] Has `C[C@@H](Oc1cc(-n2cnc3ccc(CN4CCN(C)CC4)cc32)sc1C(N)=O)c1ccccc1C(F)(F)F` a recorded Euclidean distance greater than or equal to 2?
[out] fulfilled

[in] Item COc1cc2ncnc(Nc3ccc(F)c(Cl)c3)c2cc1OCCCN1CCOCC1 [Gefitinib hydrochloride] with Euclidean distance of 2 or above?
[out] not fulfilled

[in] Quick check: does Nc1nc2n[nH]nc2c(=O)[nH]1 [Azaguanine-8] have Euclidean distance greater than or equal to 2?
[out] not fulfilled

[in] Form field: Euclidean distance at least 2? Entry: CCn1cc(C(=O)O)c(=O)c2cc(F)c(N3CCN(C)CC3)cc21 [Pefloxacin Mesylate]
[out] not fulfilled

[in] Given CC(C)OC(=O)OCOP(=O)(CO[C@H](C)Cn1cnc2c(N)ncnc21)OCOC(=O)OC(C)C [Tenofovir Disoproxil Fumarate] , state whether its Euclidean distance is at least 2.
[out] fulfilled

[in] Check the entry CN1CCN(c2c(F)cc3c(=O)c(C(=O)O)cn4c3c2OCN4C)CC1 [Marbofloxacin] : does Euclidean distance equal or exceed 2?
[out] not fulfilled

---

# key: entry, value: Euclidean distance
- Tested on: 786-O
- assay-notes: Euclidean distance of Cell Painting phenotypic profile (signed KS, 77 features) to DMSO centroid (dimensionless distance); 5 or 10 uM (library dependent); higher = stronger phenotypic change vs DMSO (phenoactivity)
- conditions-used: 48 h
Lab note: write the figure by itself, no unit.

A selection of reference data follows.
CC(=O)[C@H]1CC[C@H]2[C@@H]3C=CC4=CC(=O)CC[C@@]4(C)[C@@H]3CC[C@]12C = 0.672
Nc1cccc2c1CN(C1CCC(=O)NC1=O)C2=O (centres undefined) [Lenalidomide (CC-5013)] = 1.74
N#C/C(=C1/SC[C@@H](c2ccc(Cl)cc2Cl)S1)n1ccnc1 = 1.47

Now for the compound whose Euclidean distance we want.
[in] Record request: Euclidean distance value, item `CC(C)[C@H](NC(=O)[C@H](CC(=O)O)NC(=O)[C@H](CCCCN)NC(=O)[C@@H](N)CCCN=C(N)N)C(=O)N[C@@H](Cc1ccc(O)cc1)C(=O)O`
[out] 1.56

---

- System: FB
- assay-notes: Euclidean distance of Cell Painting phenotypic profile (signed KS, 77 features) to DMSO centroid (dimensionless distance); 5 or 10 uM (library dependent); higher = stronger phenotypic change vs DMSO (phenoactivity)
- conditions-used: 48 h
Counter-ions that a name gives are not always drawn.
experimental-endpoint: Euclidean distance
Answer using only a numeral; do not append any unit.

Example cases with answers are listed next.
N#Cc1cnc(Nc2cc(NC[C@H]3CNCCO3)c(C(F)(F)F)cn2)cn1 = 3.11
CC(C(=O)O)c1cccc(Oc2ccccc2)c1 (stereo unspecified) = 0.997
CCC[C@H](N[C@@H](C)C(=O)N1[C@H](C(=O)O)C[C@@H]2CCCC[C@@H]21)C(=O)OCC = 0.906
CC(C)OC(=O)CCC/C=C\C[C@@H]1[C@@H](/C=C/[C@@H](O)COc2cccc(C(F)(F)F)c2)[C@H](O)C[C@@H]1O = 1.11
CC[C@H]1OC(=O)[C@H](C)[C@@H](O[C@H]2C[C@@](C)(OC)[C@@H](O)[C@H](C)O2)[C@H](C)[C@@H](O[C@@H]2O[C@H](C)C[C@H](N(C)C)[C@H]2O)[C@](C)(O)C[C@@H](C)C(=O)[C@H](C)[C@H]2OC(=O)O[C@@]21C [Erythromycin Cyclocarbonate] = 0.984

[in] Recorded Euclidean distance for CN(C)CCC[C@@]1(c2ccc(F)cc2)OCc2cc(C#N)ccc21 [Escitalopram Oxalate] with FB, please?
[out] 0.918

---

- System: FB
- assay-notes: Euclidean distance of Cell Painting phenotypic profile (signed KS, 77 features) to DMSO centroid (dimensionless distance); 5 or 10 uM (library dependent); higher = stronger phenotypic change vs DMSO (phenoactivity)
- conditions-used: 48 h
Structures can show the parent of a compound that is named as a salt.
Where Euclidean distance equals or exceeds 1, the correct label is yes; where it does not, the label is no.

O=C(O)c1ccc(C=C2SC(=S)N(c3cccc(C(F)(F)F)c3)C2=O)cc1 = no

[in] State whether the measured Euclidean distance reaches 1, counting equality as reaching it, for O=C(O)/C=C/c1ccc(Cn2ccnc2)cc1 [Ozagrel]
[out] no

[in] Determine whether this compound has Euclidean distance no lower than 1: NCc1ccccc1CC(=O)N[C@@H]1C(=O)N2C(C(=O)O)=C(CSc3nnnn3CC(=O)O)CS[C@H]12 [Ceforanide]
[out] yes

[in] Could you verify whether the entry COc1ccc(CCN(C)CCCC(C#N)(c2ccc(OC)c(OC)c2)C(C)C)cc1OC (configuration not stated) [Verapamil HCl] shows Euclidean distance of no less than 1?
[out] yes

[in] Please indicate if the recorded Euclidean distance for `O=[N+]([O-])c1cn2c(n1)OC[C@@H](OCc1ccc(OC(F)(F)F)cc1)C2` meets or exceeds 1.
[out] yes

[in] Is Euclidean distance at least 1? Consider O=c1sn(-c2cccc3ccccc23)c(=O)n1Cc1ccccc1 [Tideglusib]
[out] no

---

- Tested on: OVCAR4
- assay-notes: Euclidean distance of Cell Painting phenotypic profile (signed KS, 77 features) to DMSO centroid (dimensionless distance); 5 or 10 uM (library dependent); higher = stronger phenotypic change vs DMSO (phenoactivity)
- conditions-used: 48 h
experimental-endpoint: Euclidean distance
In your answer, state the number alone without any accompanying words.

CC(=O)O[C@H]1C[C@@]2(C)[C@@H](C[C@@H](O)[C@H]3[C@@]4(C)CC[C@@H](O)[C@@H](C)[C@@H]4CC[C@@]32C)/C1=C(\CCC=C(C)C)C(=O)O [Fusidate Sodium] = 1.2
C[C@@H]1COCCN1c1cc(C2([S@](C)(=N)=O)CC2)nc(-c2cc[nH]c3nccc2-3)n1 = 2.88
CN1CCN(C2=Nc3cc(Cl)ccc3Nc3ccccc32)CC1 [Clozapine] = 1.34
Oc1ccc(O)cc1 [Hydroquinone] = 1.09

[in] Requested field: Euclidean distance. Item: CC(C)(C(=O)c1cccnc1)c1cccnc1 [Metyrapone]
[out] 1.85

[in] Which Euclidean distance is listed for COC(=O)C1=C(C#N)NC(C)=C(C(=O)OC(C)C)C1c1cccc([N+](=O)[O-])c1 (configuration not stated) [Nilvadipine] ?
[out] 1.34

[in] Consider the compound N#C/C(=C\c1ccc(O)c(O)c1)C(=O)NCc1ccccc1 [AG-490 (Tyrphostin B42)] and give its measured Euclidean distance.
[out] 0.729
